target: NEDD4L WW3 domain; experiment: FP
Sequence (chain, as listed by the source): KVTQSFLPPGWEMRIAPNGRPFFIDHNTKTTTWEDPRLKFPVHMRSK
pKd: −log10 of the molar value. Ends that are not written are not given here. Oregon Green 488 maleimide = Oregon Green 488 maleimide fluorescent label attached to the N-terminal cysteine

binder	pKd
C(Oregon Green 488 maleimide)LMRYQHPPEYGAARP [AMOT PPxY3 peptide (residues 278-292), Oregon Green 488-labelled]	4.00
C(Oregon Green 488 maleimide)MEHRGPPPEYPFKGM [AMOT PPxY2 peptide (residues 233-247), Oregon Green 488-labelled]	4.55
